% Ctrl overview
- Tested on: PDGFRA
- test_summary: KINOMEscan kinase binding assay
- settings: at 1 μM
Number only, in %; omit the unit.

Some compounds with recorded % Ctrl:
compound: Cc1cc2c([nH]1)/C=C1\C(=O)Nc3ccc(cc31)-c1c(nn(C)c1C)OCCCN(C)C2=O [Cpd. 1]
unit_info: %
value_measured: 87

compound: C[C@@H]1COCc2nn(C)cc2-c2cc(Cl)c3c(c2)/C(=C/c2[nH]ccc2C(=O)N1)C(=O)N3 [Cpd. 4]
unit_info: %
value_measured: 96

compound: Cc1cc2c([nH]1)/C=C1\C(=O)Nc3ccc(cc31)-c1c(nn(C)c1C)COCCN(C)C2=O [Cpd. 2]
unit_info: %
value_measured: 73

I'm curious: which % Ctrl was measured for Cc1cc2c([nH]1)/C=C1\C(=O)Nc3c(Cl)cc(cc31)-c1cn(C)nc1COC[C@@H](C)NC2=O [Cpd. 3] tested on PDGFRA? 92

I'm curious: which % Ctrl was measured for Cc1cc2c([nH]1)/C=C1\C(=O)Nc3c(Cl)cc(cc31)-c1cn(C)nc1COC[C@@H](C)N(C)C2=O [Cpd. 5] tested on PDGFRA? 95

---

- System: FGR
- test_summary: KINOMEscan kinase binding assay
- settings: at 1 μM
% Ctrl overview
Number only, in %; omit the unit.

smiles_str: Cc1cc2c([nH]1)/C=C1\C(=O)Nc3c(Cl)cc(cc31)-c1cn(C)nc1COC[C@@H](C)NC2=O
unit_info: %
% Ctrl: 98

I'm curious: which % Ctrl was measured for Cc1cc2c([nH]1)/C=C1\C(=O)Nc3c(Cl)cc(cc31)-c1cn(C)nc1COC[C@@H](C)N(C)C2=O tested on FGR? 93

I'm curious: which % Ctrl was measured for C[C@@H]1COCc2nn(C)cc2-c2cc(Cl)c3c(c2)/C(=C/c2[nH]ccc2C(=O)N1)C(=O)N3 tested on FGR? 100

I'm curious: which % Ctrl was measured for Cc1cc2c([nH]1)/C=C1\C(=O)Nc3ccc(cc31)-c1c(nn(C)c1C)OCCCN(C)C2=O tested on FGR? 91

I'm curious: which % Ctrl was measured for Cc1cc2c([nH]1)/C=C1\C(=O)Nc3ccc(cc31)-c1c(nn(C)c1C)COCCN(C)C2=O tested on FGR? 100

---

% Ctrl overview
- Test system: FLT1
- test_summary: KINOMEscan kinase binding assay
- settings: at 1 μM
Number only, in %; omit the unit.

Some compounds with recorded % Ctrl:
smiles_str: Cc1cc2c([nH]1)/C=C1\C(=O)Nc3ccc(cc31)-c1c(nn(C)c1C)OCCCN(C)C2=O
value_measured: 97
//
smiles_str: Cc1cc2c([nH]1)/C=C1\C(=O)Nc3c(Cl)cc(cc31)-c1cn(C)nc1COC[C@@H](C)N(C)C2=O
value_measured: 93
//
smiles_str: Cc1cc2c([nH]1)/C=C1\C(=O)Nc3c(Cl)cc(cc31)-c1cn(C)nc1COC[C@@H](C)NC2=O
value_measured: 92
//
smiles_str: C[C@@H]1COCc2nn(C)cc2-c2cc(Cl)c3c(c2)/C(=C/c2[nH]ccc2C(=O)N1)C(=O)N3
value_measured: 92

I'm curious: which % Ctrl was measured for Cc1cc2c([nH]1)/C=C1\C(=O)Nc3ccc(cc31)-c1c(nn(C)c1C)COCCN(C)C2=O tested on FLT1? 79

---

- Tested on: KIT(V559D, V654A)
- test_summary: KINOMEscan kinase binding assay
- settings: at 1 μM
endpoint_label: % Ctrl (%)
Number only, in %; omit the unit.

Some molecules with recorded % Ctrl:
smiles_str: C[C@@H]1COCc2nn(C)cc2-c2cc(Cl)c3c(c2)/C(=C/c2[nH]ccc2C(=O)N1)C(=O)N3
endpoint_label: % Ctrl
unit_info: %
value_measured: 99
//
smiles_str: Cc1cc2c([nH]1)/C=C1\C(=O)Nc3c(Cl)cc(cc31)-c1cn(C)nc1COC[C@@H](C)NC2=O
endpoint_label: % Ctrl
unit_info: %
value_measured: 100
//
smiles_str: Cc1cc2c([nH]1)/C=C1\C(=O)Nc3ccc(cc31)-c1c(nn(C)c1C)OCCCN(C)C2=O
endpoint_label: % Ctrl
unit_info: %
value_measured: 100
//
smiles_str: Cc1cc2c([nH]1)/C=C1\C(=O)Nc3c(Cl)cc(cc31)-c1cn(C)nc1COC[C@@H](C)N(C)C2=O
endpoint_label: % Ctrl
unit_info: %
value_measured: 91

Turning now to a further molecule:
Entry under review: Cc1cc2c([nH]1)/C=C1\C(=O)Nc3ccc(cc31)-c1c(nn(C)c1C)COCCN(C)C2=O . Reported % Ctrl? 92

---

- Test system: KIT
- test_summary: KINOMEscan kinase binding assay
- settings: at 1 μM
endpoint_label: % Ctrl
Answer with the figure and its unit, nothing else.

smiles_str: C[C@@H]1COCc2nn(C)cc2-c2cc(Cl)c3c(c2)/C(=C/c2[nH]ccc2C(=O)N1)C(=O)N3
% Ctrl: 100%
--
smiles_str: Cc1cc2c([nH]1)/C=C1\C(=O)Nc3c(Cl)cc(cc31)-c1cn(C)nc1COC[C@@H](C)N(C)C2=O
% Ctrl: 98%
--
smiles_str: Cc1cc2c([nH]1)/C=C1\C(=O)Nc3c(Cl)cc(cc31)-c1cn(C)nc1COC[C@@H](C)NC2=O
% Ctrl: 100%
--
smiles_str: Cc1cc2c([nH]1)/C=C1\C(=O)Nc3ccc(cc31)-c1c(nn(C)c1C)OCCCN(C)C2=O
% Ctrl: 91%

Turning now to a further molecule:
Entry under review: Cc1cc2c([nH]1)/C=C1\C(=O)Nc3ccc(cc31)-c1c(nn(C)c1C)COCCN(C)C2=O . Reported % Ctrl? 100%

---

- System: ABL1-phosphorylated
- test_summary: KINOMEscan kinase binding assay
- settings: at 1 μM
Assign labels as follows, please: 1.0 for % Ctrl below 80%; 0.0 for % Ctrl equal to or exceeding 80%.

Illustrative cases are given below, each with its answer.
smiles_str: Cc1cc2c([nH]1)/C=C1\C(=O)Nc3ccc(cc31)-c1c(nn(C)c1C)COCCN(C)C2=O
class_name: 1.0

smiles_str: C[C@@H]1COCc2nn(C)cc2-c2cc(Cl)c3c(c2)/C(=C/c2[nH]ccc2C(=O)N1)C(=O)N3
class_name: 0.0

Item Cc1cc2c([nH]1)/C=C1\C(=O)Nc3c(Cl)cc(cc31)-c1cn(C)nc1COC[C@@H](C)NC2=O : % Ctrl beneath 80%, strictly? 0.0

---

- System: TIE1
- test_summary: KINOMEscan kinase binding assay
- settings: at 1 μM
% Ctrl overview
Number only, in %; omit the unit.

Some compounds with recorded % Ctrl:
smiles_str: Cc1cc2c([nH]1)/C=C1\C(=O)Nc3ccc(cc31)-c1c(nn(C)c1C)COCCN(C)C2=O
unit_info: %
% Ctrl: 61
//
smiles_str: Cc1cc2c([nH]1)/C=C1\C(=O)Nc3c(Cl)cc(cc31)-c1cn(C)nc1COC[C@@H](C)NC2=O
unit_info: %
% Ctrl: 93
//
smiles_str: Cc1cc2c([nH]1)/C=C1\C(=O)Nc3c(Cl)cc(cc31)-c1cn(C)nc1COC[C@@H](C)N(C)C2=O
unit_info: %
% Ctrl: 91
//
smiles_str: Cc1cc2c([nH]1)/C=C1\C(=O)Nc3ccc(cc31)-c1c(nn(C)c1C)OCCCN(C)C2=O
unit_info: %
% Ctrl: 100

Entry under review: C[C@@H]1COCc2nn(C)cc2-c2cc(Cl)c3c(c2)/C(=C/c2[nH]ccc2C(=O)N1)C(=O)N3 . Reported % Ctrl? 84

---

% Ctrl overview
- Test system: EPHB2
- test_summary: KINOMEscan kinase binding assay
- settings: at 1 μM
Number only, in %; omit the unit.

Some compounds with recorded % Ctrl:
smiles_str: Cc1cc2c([nH]1)/C=C1\C(=O)Nc3c(Cl)cc(cc31)-c1cn(C)nc1COC[C@@H](C)NC2=O
% Ctrl, %: 99
--
smiles_str: Cc1cc2c([nH]1)/C=C1\C(=O)Nc3ccc(cc31)-c1c(nn(C)c1C)OCCCN(C)C2=O
% Ctrl, %: 97
--
smiles_str: Cc1cc2c([nH]1)/C=C1\C(=O)Nc3ccc(cc31)-c1c(nn(C)c1C)COCCN(C)C2=O
% Ctrl, %: 97
--
smiles_str: C[C@@H]1COCc2nn(C)cc2-c2cc(Cl)c3c(c2)/C(=C/c2[nH]ccc2C(=O)N1)C(=O)N3
% Ctrl, %: 96

Turning now to a further compound:
Entry under review: Cc1cc2c([nH]1)/C=C1\C(=O)Nc3c(Cl)cc(cc31)-c1cn(C)nc1COC[C@@H](C)N(C)C2=O . Reported % Ctrl? 90

---

- Tested on: FLT3(N841I)
- test_summary: KINOMEscan kinase binding assay
- settings: at 1 μM
Assign labels as follows, please: class 1 for % Ctrl below 90%; class 0 for % Ctrl equal to or exceeding 90%.

smiles_str: C[C@@H]1COCc2nn(C)cc2-c2cc(Cl)c3c(c2)/C(=C/c2[nH]ccc2C(=O)N1)C(=O)N3
class_name: class 1
--
smiles_str: Cc1cc2c([nH]1)/C=C1\C(=O)Nc3ccc(cc31)-c1c(nn(C)c1C)OCCCN(C)C2=O
class_name: class 0
--
smiles_str: Cc1cc2c([nH]1)/C=C1\C(=O)Nc3ccc(cc31)-c1c(nn(C)c1C)COCCN(C)C2=O
class_name: class 1

Could you now look at the following compound, please?
Item Cc1cc2c([nH]1)/C=C1\C(=O)Nc3c(Cl)cc(cc31)-c1cn(C)nc1COC[C@@H](C)N(C)C2=O : % Ctrl beneath 90%, strictly? class 1
